Reference source for all entries: paper PMC9482650

# assayTarget: DLG4_1, P78352
# Sequence (P78352 62-152): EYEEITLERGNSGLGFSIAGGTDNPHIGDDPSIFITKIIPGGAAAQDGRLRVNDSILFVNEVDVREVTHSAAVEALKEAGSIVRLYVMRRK
# assayRemarks: holdup assay
# Design: key: below the threshold = too weak to quantify, mostly under pKd 3.1 to 4
# assayContext: plain residues with an end cap or a label only (N-terminal biotin on a linker: ado-ado)
observationType: pKd

binder="TFSRRPKTRV [CD226, Q15762]" measuredresult=3.62
binder="NISARRFTLC [FAM167B, Q9BTA0]" measuredresult=4.35
binder="SQPLLVHDDV [KIT, P10721]" measuredresult="below the threshold"
binder="KEKASTETEC [TRPM1, Q7Z4N2]" measuredresult=3.88

Provide the reported pKd of each entry below, same order.
1. TKDKVQETQI [LRRC4, Q9HBW1]
2. PDSYHRRDFW [U2AF2, P26368]
3. EPAKETTTNV [SLC2A3, P11169]
4. AKADAQESRL [PLCB2, Q00722]
5. GDSSRKEYFI [GYPC, P04921]

RESULT:
4.44
3.62
4.12
below the threshold
below the threshold
